Hey, just so you know, these numbers are from patent US20120178758A1.

- Measured on: Aurora-A(h) (Homo sapiens)
- Construct: purchased Millipore (KinaseProfiler Service) / Reaction Biology Corp. (Kinase Hotspot)
- Sequence (O14965 1-403): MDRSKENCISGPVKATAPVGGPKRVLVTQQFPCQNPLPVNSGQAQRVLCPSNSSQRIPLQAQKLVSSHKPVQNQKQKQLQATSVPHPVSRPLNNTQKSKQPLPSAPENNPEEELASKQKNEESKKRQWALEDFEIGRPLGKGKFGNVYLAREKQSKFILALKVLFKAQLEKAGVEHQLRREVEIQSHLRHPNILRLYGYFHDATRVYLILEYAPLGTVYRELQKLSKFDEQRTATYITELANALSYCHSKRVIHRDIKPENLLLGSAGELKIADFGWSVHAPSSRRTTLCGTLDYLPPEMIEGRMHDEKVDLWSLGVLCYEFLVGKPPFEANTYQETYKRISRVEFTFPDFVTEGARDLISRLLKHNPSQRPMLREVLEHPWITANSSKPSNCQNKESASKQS
- Test method notes: Aurora-A kinase assay (KinaseProfiler / Kinase Hotspot)
- Format: biochemical
- Condition label: compound at 1 μM; read-out: % Inhibition @1 μM Auroro-A
A collection of compounds and their measured inhibition at 1 µM

Known inhibition at 1 µM results, listed for orientation:
Cc1cc(Nc2nc(C#Cc3ccccc3)nc(N3CCN(C)CC3)n2)n[nH]1 :: 50 to 90%
Cc1cc(Nc2nc(/C=C/c3ccccc3Cl)nc(N3CCN(C)CC3)n2)n[nH]1 :: 50 to 90%
Cc1ccc(/C=C/c2nc(Nc3cc(C)[nH]n3)nc(N3CCN(C)CC3)n2)cc1 :: 50 to 90%
Cc1cc(Nc2nc(/C=C/c3ccc(Cl)cc3)nc(N3CCN(C)CC3)n2)n[nH]1 :: 50 to 90%
Cc1cc(Nc2nc(/C=C/c3cccc(Cl)c3)nc(N3CCN(C)CC3)n2)n[nH]1 :: 50 to 90%
Cc1cc(Nc2nc(/C=C/c3ccccc3)nc(N3CCN(C)CC3)n2)n[nH]1 :: > 90%
CN1CCN(c2nc(/C=C/c3ccccc3)nc(Nc3cc(-c4ccccc4)[nH]n3)n2)CC1 :: 50 to 90%
C/C=C/c1cc(Nc2nc(/C=C/c3ccccc3)nc(N3CCN(C)CC3)n2)n[nH]1 :: 50 to 90%

Exam item: Which value of inhibition at 1 µM has been reported for "Cc1cnc(Nc2nc(/C=C/c3ccccc3)nc(N3CCN(C)CC3)n2)s1" in the records?
Marked response: 50 to 90%

Exam item: Thanks! And "Cc1cc(Nc2nc(/C=C/c3nccs3)nc(N3CCN(C)CC3)n2)n[nH]1" ?
Marked response: 50 to 90%

Exam item: Thanks! And "Cc1cc(Nc2nc(/C=C\c3ccccc3)nc(N3CCN(C)CC3)n2)n[nH]1" ?
Marked response: 50 to 90%

---

- Measured on: Flt3 kinase (Homo sapiens)
- Construct: purchased Millipore (KinaseProfiler Service) / Reaction Biology Corp. (Kinase Hotspot)
- Sequence (P36888 27-993): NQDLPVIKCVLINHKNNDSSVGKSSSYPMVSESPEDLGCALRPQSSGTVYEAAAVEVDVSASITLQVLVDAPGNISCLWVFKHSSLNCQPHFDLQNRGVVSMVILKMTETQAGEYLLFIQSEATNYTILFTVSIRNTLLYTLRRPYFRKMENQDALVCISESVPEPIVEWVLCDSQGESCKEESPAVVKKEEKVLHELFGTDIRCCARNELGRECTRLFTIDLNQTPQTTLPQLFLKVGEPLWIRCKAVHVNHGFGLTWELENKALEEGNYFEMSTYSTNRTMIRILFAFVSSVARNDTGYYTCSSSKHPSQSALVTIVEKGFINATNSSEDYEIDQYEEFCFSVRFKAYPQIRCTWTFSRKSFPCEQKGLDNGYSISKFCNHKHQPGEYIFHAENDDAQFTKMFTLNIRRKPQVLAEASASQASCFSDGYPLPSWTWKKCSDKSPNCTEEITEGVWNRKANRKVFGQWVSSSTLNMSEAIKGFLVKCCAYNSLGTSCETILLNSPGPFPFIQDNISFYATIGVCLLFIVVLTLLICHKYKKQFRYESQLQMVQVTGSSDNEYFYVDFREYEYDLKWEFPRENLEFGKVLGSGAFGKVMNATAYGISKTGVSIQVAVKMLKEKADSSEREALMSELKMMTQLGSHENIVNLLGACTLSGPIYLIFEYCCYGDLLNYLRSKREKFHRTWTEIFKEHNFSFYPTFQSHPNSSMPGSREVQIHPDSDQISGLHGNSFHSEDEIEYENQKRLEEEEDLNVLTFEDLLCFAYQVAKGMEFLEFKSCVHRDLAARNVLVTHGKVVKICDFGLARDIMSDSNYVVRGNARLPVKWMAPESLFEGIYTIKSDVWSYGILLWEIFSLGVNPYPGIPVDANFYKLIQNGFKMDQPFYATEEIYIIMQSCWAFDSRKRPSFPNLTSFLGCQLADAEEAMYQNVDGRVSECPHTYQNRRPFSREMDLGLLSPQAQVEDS
- Test method notes: Flt3 kinase assay (KinaseProfiler / Kinase Hotspot)
- Assay type: biochemical
- Condition label: compound at 1 μM
Endpoint: inhibition at 1 µM

Known inhibition at 1 µM results, listed for orientation:
Cc1cc(Nc2nc(/C=C/c3ccccc3)nc(N3CCN(C)CC3)n2)n[nH]1 [Example 7] :: > 90%
Cc1cnc(Nc2nc(/C=C/c3ccccc3)nc(N3CCN(C)CC3)n2)s1 [Example 17] :: > 90%
C/C=C/c1cc(Nc2nc(/C=C/c3ccccc3)nc(N3CCN(C)CC3)n2)n[nH]1 [Example 19] :: 50 to 90%

Exam item: Which value of inhibition at 1 µM has been reported for Cc1cc(Nc2nc(/C=C/c3ccc(Cl)cc3)nc(N3CCN(C)CC3)n2)n[nH]1 [Example 8] in the records?
Marked response: > 90%

Exam item: Thanks! And Cc1cc(Nc2nc(/C=C/c3nccs3)nc(N3CCN(C)CC3)n2)n[nH]1 [Example 12] ?
Marked response: > 90%

Exam item: Thanks! And Cc1cc(Nc2nc(C#Cc3ccccc3)nc(N3CCN(C)CC3)n2)n[nH]1 [Example 3] ?
Marked response: 50 to 90%

Exam item: Thanks! And Cc1cc(Nc2nc(/C=C\c3ccccc3)nc(N3CCN(C)CC3)n2)n[nH]1 [Example 4] ?
Marked response: 50 to 90%

Exam item: Thanks! And Cc1cc(Nc2nc(/C=C/c3ccccc3Cl)nc(N3CCN(C)CC3)n2)n[nH]1 [Example 10] ?
Marked response: > 90%

Exam item: Thanks! And Cc1cc(Nc2nc(/C=C/c3cccc(Cl)c3)nc(N3CCN(C)CC3)n2)n[nH]1 [Example 11] ?
Marked response: > 90%

Exam item: Thanks! And CN1CCN(c2nc(/C=C/c3ccccc3)nc(Nc3cc(-c4ccccc4)[nH]n3)n2)CC1 [Example 18] ?
Marked response: > 90%

Exam item: Thanks! And Cc1ccc(/C=C/c2nc(Nc3cc(C)[nH]n3)nc(N3CCN(C)CC3)n2)cc1 [Example 9] ?
Marked response: 50 to 90%
